- Assay name: NCI Yeast Anticancer Drug Screen. Data for the rad50 strain (AID 155);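 note: 0% = growth of vehicle-only cultures of the same strain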
- Test conditions: S. cerevisiae rad50 strain growth inhibition; at 3.7 µM; active compounds read high
This is part of a sample that, as a whole, favours compounds with a hit. Of some 79,000 tested, about 15% had one in any assay.
# cutoff 20% applies to growth inhibition; >= gives 1 (yes), < gives 0 (no)

{"columns": ["Compound", "Cat"],
 "data": [
  ["C/C(=N\\NC(N)=O)C(CN1CCOCC1)C(c1ccccc1)c1c(O)c2ccccc2oc1=O (centres undefined)", "0 (no)"],
  ["O=C1C=CC(=O)C1(Br)Br", "1 (yes)"],
  ["COc1ccc(OC)c(/C=C/[N+](=O)[O-])c1", "1 (yes)"],
  ["CC[C@](O)(C(=O)O)c1cc2n(c(=O)c1CO)Cc1cc3ccccc3nc1-2", "1 (yes)"],
  ["C=CC[N+]12CN3CN(CN(C3)C1)C2", "0 (no)"],
  ["CCNC(=O)OCC1C2=C(C(=O)C(C)=C(N)C2=O)N2CC3C(N3C)C12OC (centres undefined)", "0 (no)"],
  ["COC(=O)C1c2cc3c(c(O)c2C(O)CC1(C)O)C(=O)c1c(O)cc2c(c1C3=O)OC1OC2(C)C(O)C(N(C)C)C1O (centres undefined)", "1 (yes)"],
  ["CC1=C[C@H]2O[C@@H]3C[C@H]4OC(=O)/C=C\\C=C\\C(C(C)O)OCC(O)C(C)CC(=O)OC[C@@]2(C[C@@H]1O)[C@]4(C)[C@@]31CO1 (some centres undefined)", "0 (no)"],
  ["CCOC(=O)C1=C(C(=O)OCC)C2(c3ccccc3)N(O1)c1ccccc1C2(C)C (centres undefined)", "0 (no)"],
  ["Cc1cc[n+](C2=C(Nc3cccc(C(F)(F)F)c3)C(=O)c3ccccc3C2=O)cc1", "0 (no)"],
  ["Cc1ccc2c(c1)C1(C)c3cc(C)ccc3SP1S2 (centres undefined)", "0 (no)"],
  ["CC1(Cl)CC(C)(/C=C/Cl)C(Cl)CC1Cl (centres undefined)", "0 (no)"],
  ["CCN(CCCl)c1cc(CN(C)C)cc(NC(=O)c2ccc(C(=O)Nc3cc(CN(C)C)cc(N(CC)CCCl)c3)cc2)c1", "0 (no)"],
  ["Nc1ccccc1C(=O)OCCc1ccccc1", "0 (no)"],
  ["Oc1c(Br)cc(Br)cc1Br", "0 (no)"],
  ["O=P(CCCCP(=O)(c1ccccc1)c1ccccc1)(c1ccccc1)c1ccccc1.[Cl][Sn]([Cl])([c]1ccccc1)[c]1ccccc1", "1 (yes)"],
  ["CCNCC(=O)O[C@]1(CC)C(=O)OCc2c1cc1n(c2=O)Cc2cc3ccccc3nc2-1", "0 (no)"],
  ["COC(=O)c1c(C)ccc2c(O)c3c(cc12)C(=O)c1c2c(cc(O)c1C3=O)C1(C)OC(C)(O2)C(O)C(N(C)C)C1O (centres undefined)", "1 (yes)"],
  ["O=c1oc2ccccc2c(O)c1C(c1ccc2ccccc2c1)c1c(O)c2ccccc2oc1=O", "0 (no)"],
  ["Cc1ccc(P(c2ccc(C)cc2)c2ccc(C)cc2)cc1", "1 (yes)"],
  ["Cc1cccc(NC(=O)CBr)c1", "1 (yes)"],
  ["S=C1NC2(CCCCC2)NC12CCCCC2", "0 (no)"],
  ["COc1ccc(/C=C(/C)[N+](=O)[O-])cc1", "1 (yes)"],
  ["CCOP(=S)(S)OCC.[Pd]", "1 (yes)"],
  ["OC(c1ccc(Br)cc1)C(Cl)(Cl)Cl (centres undefined)", "0 (no)"],
  ["CN(C)CCSC1=Nc2ccc(Cl)cc2C(c2ccccc2Cl)=NC1", "0 (no)"],
  ["O=[N+]([O-])c1oc2ccc3ccccc3c2c1CCO", "1 (yes)"],
  ["Oc1cccnc1[Se]", "0 (no)"],
  ["O=[N+]([O-])c1ccc(C=Cc2ccccc2)cc1.[C-]#[O+].[C-]#[O+].[C-]#[O+].[Cr]", "0 (no)"],
  ["CCOC(=O)C1([Se]c2ccccc2)CCCC1=O (centres undefined)", "0 (no)"],
  ["O=P(Oc1ccc(Cl)cc1)(Oc1ccc(Cl)cc1)N1CC1", "0 (no)"],
  ["COc1ccc([N+]2=NC(c3ccc([N+](=O)[O-])cc3)=NN(c3ccccc3)C2)cc1", "0 (no)"],
  ["CCC1(O)C(=O)OCc2c1cc1n(c2=O)Cc2c-1nc1ccccc1c2OC (centres undefined)", "1 (yes)"],
  ["C[C@]12CCC(=O)C=C1CC[C@@H]1C2CC[C@@]2(C)C1CC[C@@H]2OC(=O)C12OC1CCC2=O (some centres undefined)", "0 (no)"],
  ["C[N+](CCCl)(CCCl)Cc1cccc2cccc([N+](=O)[O-])c12", "1 (yes)"],
  ["O=C(O)C1C2CCC(C2)C1c1ccccc1 (centres undefined)", "0 (no)"],
  ["Cn1cc(NC(=O)c2cc(NC(=O)CN=C(N)N)cn2C)cc1C(=O)NCCC(=N)N", "0 (no)"],
  ["CC1(C)N=C(N)N=C(N)N1c1cccc(N)c1.[Sn]", "0 (no)"],
  ["O=c1oc2ccccc2c(O)c1C(c1ccc2c(c1)Cc1ccccc1-2)c1c(O)c2ccccc2oc1=O", "0 (no)"],
  ["Cc1c([N+](=O)[O-])oc2ccc3ccccc3c12", "1 (yes)"],
  ["CCCCCNC(=O)c1c(O)[nH]c(=S)[nH]c1=O", "0 (no)"],
  ["CCS(=O)(=O)[O][Sn]([CH2]C)([CH2]C)[O]S(=O)(=O)CC", "0 (no)"],
  ["O=C(O)C1C2C=CC(C2)C1c1ccccc1 (centres undefined)", "1 (yes)"]
]}

Where do the numbers come from? From PubChem BioAssay (NCI).
